Provenance of the data: the supplement of paper PMC10307832

Here, each record is paired with measured relative viability data.
Test system: ChaGo-K-1
Assay: relative viability (nuclei count vs DMSO), 5 days (fraction); higher = more cells survive
Conditions: first compound 0.02 µM
Lab note: write the figure by itself, no unit.

Look over these answered cases.
CCNC(=O)c1noc(-c2cc(C(C)C)c(O)cc2O)c1-c1ccc(CN2CCOCC2)cc1 [Luminespib] + O=C(CCCCCCC(=O)Nc1ccccc1)NO [Vorinostat] (partner 1 µM)	0.529
CCNC(=O)c1noc(-c2cc(C(C)C)c(O)cc2O)c1-c1ccc(CN2CCOCC2)cc1 [Luminespib] + CC(=O)c1c(C)c2cnc(Nc3ccc(N4CCNCC4)cn3)nc2n(C2CCCC2)c1=O [Palbociclib] (partner 0.5 µM)	0.963

Give reported relative viability value for CCNC(=O)c1noc(-c2cc(C(C)C)c(O)cc2O)c1-c1ccc(CN2CCOCC2)cc1 [Luminespib] + Cc1cc(Nc2cc(N3CCN(C)CC3)nc(Sc3ccc(NC(=O)C4CC4)cc3)n2)n[nH]1 [Tozasertib] (partner 0.1 µM)
0.159

Give reported relative viability value for CN1CCN(CCOc2cc(OC3CCOCC3)c3c(Nc4c(Cl)ccc5c4OCO5)ncnc3c2)CC1 [Saracatinib] + CS(=O)(=O)N1CCN(Cc2cc3nc(-c4cccc5[nH]ncc45)nc(N4CCOCC4)c3s2)CC1 [Pictilisib] (partner 1 µM)
0.784

Give reported relative viability value for CN1CCN(CCOc2cc(OC3CCOCC3)c3c(Nc4c(Cl)ccc5c4OCO5)ncnc3c2)CC1 [Saracatinib] + Nc1nc2[nH]cc(CCc3ccc(C(=O)N[C@@H](CCC(=O)O)C(=O)O)cc3)c2c(=O)[nH]1 [Pemetrexed] (partner 0.2 µM)
0.28

Give reported relative viability value for CN1CCN(CCOc2cc(OC3CCOCC3)c3c(Nc4c(Cl)ccc5c4OCO5)ncnc3c2)CC1 [Saracatinib] + CCNC(=O)c1noc(-c2cc(C(C)C)c(O)cc2O)c1-c1ccc(CN2CCOCC2)cc1 [Luminespib] (partner 0.01 µM)
0.663

Give reported relative viability value for CCNC(=O)c1noc(-c2cc(C(C)C)c(O)cc2O)c1-c1ccc(CN2CCOCC2)cc1 [Luminespib] + COc1cccc2cc(-c3nc([C@H]4CC[C@H](C(=O)O)CC4)n4ncnc(N)c34)[nH]c12 [OSI-027] (partner 0.5 µM)
0.525

Give reported relative viability value for CN1CCN(CCOc2cc(OC3CCOCC3)c3c(Nc4c(Cl)ccc5c4OCO5)ncnc3c2)CC1 [Saracatinib] + CC1(C)CCC(c2ccc(Cl)cc2)=C(CN2CCN(c3ccc(C(=O)NS(=O)(=O)c4ccc(N[C@H](CCN5CCOCC5)CSc5ccccc5)c(S(=O)(=O)C(F)(F)F)c4)cc3)CC2)C1 [Navitoclax] (partner 0.5 µM)
1.15
